Catalogue of EC50 values
target_under_test: recombinant human IL-15 (Prospec cat no. CYT230) (human, UniProt P40933 49-162)
Sequence (P40933 other isoform, or with tags, fused parts or gaps): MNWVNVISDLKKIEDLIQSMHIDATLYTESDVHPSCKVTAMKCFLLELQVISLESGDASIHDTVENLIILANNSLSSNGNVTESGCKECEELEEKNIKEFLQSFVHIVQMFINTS
procedure_details: ELISA, plate-bound human IL-15; printed as BC50 (half-maximal binding concentration)
measurement_name: EC50 (nM)

1) huB-E29-5 (antibody, human IgG1, kappa, V domains shown, Humanized B-E29 variant; human IgG1 (G1m3) / kappa (Km3), produced in CHO cells; also called huVH1/huVL3) VH: EVRLMASGGGLVQPGGSLRLSCAASEFTFSNYAMSWVRQAPGKGLEWVATISRGGDYTYYPDSVKGRFTISRDNSKNTLYLQMNSLRAEDTAVYYCARRVSMITGGWAMDYWGQGTLVTVSS VL: DVVMTQSPLSLPVTLGQPASISCRSSQSIVDITGNTYLEWYQQRPGQSPRRLIYKVFNRFSGVPDRFSGSGSGTDFTLKISRVEAEDVGVYYCFQDSFVPYTFGQGTKLEIKR : 1.47
2) huB-E29-11 (antibody, human IgG1, kappa, V domains shown, Humanized B-E29 variant; human IgG1 (G1m3) / kappa (Km3), produced in CHO cells; also called huVH9/huVL1) VH: EVRLMASGGGLVQPGGSLRLSCAASEFTFSNYAMSWVRQAPGKGLEWVATISRGGDYTYYPDTVKGRFTISRDNSKNTLYLQMNSLRAEDTAVYYCARRVSMITGGFAMDYWGQGTLVTVSS VL: DVVMTQSPLSLPVTLGQPASISCRSSQSIVDITGNTYLEWYQQRPGQSPRLLIYKVFNRFSGVPDRFSGSGSGTDFTLKISRVEAEDVGVYYCFQDSFVPYTFGQGTKLEIKR : 0.98
3) huB-E29-3 (antibody, human IgG1, kappa, V domains shown, Humanized B-E29 variant; human IgG1 (G1m3) / kappa (Km3), produced in CHO cells; also called huVH3/huVL1) VH: EVRLMASGGGLVQPGGSLRLSCAASEFTFSNYAMSWVRQAPGKGLEWVSTISRGGDYTYYPDSVKGRFTISRDNSKNTLYLQMNSLRAEDTAVYYCARRVSMITGGWAMDYWGQGTLVTVSS VL: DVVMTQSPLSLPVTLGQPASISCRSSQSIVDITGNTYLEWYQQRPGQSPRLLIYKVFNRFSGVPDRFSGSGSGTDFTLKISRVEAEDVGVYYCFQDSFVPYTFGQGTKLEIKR : 2.62
